The origin of these recorded values is patent US20240239894A1.

- Tested system: T1, Murine B7-H4 ECD-Flag-His10 (monomeric) (mouse, UniProt Q7TSP5 25-257)
- T1 construct: extracellular domain; also called FlagHis10 murine B7-H4
- T1 sequence (looked up): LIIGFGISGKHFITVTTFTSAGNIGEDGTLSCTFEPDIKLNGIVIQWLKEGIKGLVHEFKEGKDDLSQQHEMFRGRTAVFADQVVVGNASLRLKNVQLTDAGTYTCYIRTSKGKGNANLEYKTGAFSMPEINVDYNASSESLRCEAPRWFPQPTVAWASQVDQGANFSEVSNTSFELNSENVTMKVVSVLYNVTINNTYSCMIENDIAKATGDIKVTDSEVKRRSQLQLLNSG
- Method summary: Octet BLI, hIgG1-TM on Protein G (n = 4-7)
pKd: −log10 of the molar value.
Property label: pKd

Binder	Numeric result
ZY0EPQ-E02 human IgG1-TM (antibody, V domains shown) VH: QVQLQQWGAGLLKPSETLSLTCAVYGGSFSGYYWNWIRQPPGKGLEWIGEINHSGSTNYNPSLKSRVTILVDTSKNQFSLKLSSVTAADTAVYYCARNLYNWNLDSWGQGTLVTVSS VL: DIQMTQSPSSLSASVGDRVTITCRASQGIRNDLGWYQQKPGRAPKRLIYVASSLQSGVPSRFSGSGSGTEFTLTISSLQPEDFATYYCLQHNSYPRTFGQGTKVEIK	6.40
ZY0EP0-C07 human IgG1-TM (antibody, V domains shown, also called ZY0EPO-C07) VH: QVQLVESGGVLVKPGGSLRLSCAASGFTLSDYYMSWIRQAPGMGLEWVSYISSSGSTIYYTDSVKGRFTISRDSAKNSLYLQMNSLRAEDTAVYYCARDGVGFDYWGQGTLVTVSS VL: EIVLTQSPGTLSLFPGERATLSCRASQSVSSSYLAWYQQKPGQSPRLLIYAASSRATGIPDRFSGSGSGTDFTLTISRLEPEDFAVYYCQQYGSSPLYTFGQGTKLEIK	7.96
ZY0EO5-E07 human IgG1-TM (antibody, V domains shown, also called ZY0E05-E07; E05-E07) VH: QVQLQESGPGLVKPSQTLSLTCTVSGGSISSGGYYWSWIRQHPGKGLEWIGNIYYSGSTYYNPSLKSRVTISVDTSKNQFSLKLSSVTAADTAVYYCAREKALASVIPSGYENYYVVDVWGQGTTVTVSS VL: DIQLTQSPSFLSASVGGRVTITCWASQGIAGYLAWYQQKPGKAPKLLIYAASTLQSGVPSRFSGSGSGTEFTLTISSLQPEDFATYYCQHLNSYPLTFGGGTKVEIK	7.52
ZY0EQD-E02 human IgG1-TM (antibody, V domains shown) VH: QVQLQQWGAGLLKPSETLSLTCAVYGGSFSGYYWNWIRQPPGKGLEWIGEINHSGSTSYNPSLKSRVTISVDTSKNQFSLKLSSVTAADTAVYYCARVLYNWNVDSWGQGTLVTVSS VL: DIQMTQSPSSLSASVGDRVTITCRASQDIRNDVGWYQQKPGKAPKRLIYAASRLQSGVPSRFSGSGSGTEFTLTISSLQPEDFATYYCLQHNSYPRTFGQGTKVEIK	6.21
ZY0EOB-F05 human IgG1-TM (antibody, V domains shown) VH: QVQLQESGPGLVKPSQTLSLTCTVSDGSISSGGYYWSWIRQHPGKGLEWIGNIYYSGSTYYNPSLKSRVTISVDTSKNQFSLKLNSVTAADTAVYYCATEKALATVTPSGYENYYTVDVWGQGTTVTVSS VL: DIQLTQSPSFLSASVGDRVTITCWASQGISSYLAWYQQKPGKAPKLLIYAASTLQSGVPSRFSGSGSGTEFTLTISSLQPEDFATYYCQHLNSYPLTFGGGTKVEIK	7.60
